# Test system: HBV (genotype D, subtype ayw)
# experiment: HBV replication assay in HepAD38 cells
# Assay type: cell-based, Hepatitis B virus
# condition.summary: Hepatitis B virus, HePAD38, HepAD38, concomitantly determined with HepG2-NrtI^R; read-out: Mean EC50
measure.name: pEC50
Numbers only, as −log10 of the molar value.

O=C(NCc1cnc(C(F)(F)F)s1)c1ccc2c(c1)NC(=O)c1ccccc1S2(=O)=O; 6.66

# evaluate next
Input line: I have this molecule here, `C=C1[C@H](CO)[C@@H](O)C[C@@H]1n1cnc2c(=O)[nH]c(N)nc21` , and I need its recorded pEC50.
Output line: 9.22

---

# experiment: in vivo
# condition.summary: male, beagle, dog, po, 3 mg/kg, T1/2
measure.name: half-life (h)
One number for each entry, in h.

Input line: What does the data say about its half-life? Entry: O=C(NCc1cnc(C(F)(F)F)s1)c1ccc2c(c1)NC(=O)c1ccccc1S2(=O)=O [ABI-H0731]
Output line: 3.34

---

# experiment: in vivo
# condition.summary: male, beagle, dog, iv, 2 mg/kg
measure.name: AUC(0-inf) (ng·h/mL)
Numbers only, in ng·h/mL.

Input line: Tell me the measured AUC(0-inf) of `O=C(NCc1cnc(C(F)(F)F)s1)c1ccc2c(c1)NC(=O)c1ccccc1S2(=O)=O` , please.
Output line: 2890

---

# experiment: in vitro
# condition.summary: rat, microsomes
measure.name: half-life at 0.5 μM
I'd appreciate it if you wrote the number followed by its unit.

Input line: Would you kindly share the measured half-life at 0.5 μM for O=C(NCc1cnc(C(F)(F)F)s1)c1ccc2c(c1)NC(=O)c1ccccc1S2(=O)=O [ABI-H0731] ?
Output line: 4.62 h

---

# target.system: CYP3A (Homo sapiens)
# Sequence (P08684 2-503): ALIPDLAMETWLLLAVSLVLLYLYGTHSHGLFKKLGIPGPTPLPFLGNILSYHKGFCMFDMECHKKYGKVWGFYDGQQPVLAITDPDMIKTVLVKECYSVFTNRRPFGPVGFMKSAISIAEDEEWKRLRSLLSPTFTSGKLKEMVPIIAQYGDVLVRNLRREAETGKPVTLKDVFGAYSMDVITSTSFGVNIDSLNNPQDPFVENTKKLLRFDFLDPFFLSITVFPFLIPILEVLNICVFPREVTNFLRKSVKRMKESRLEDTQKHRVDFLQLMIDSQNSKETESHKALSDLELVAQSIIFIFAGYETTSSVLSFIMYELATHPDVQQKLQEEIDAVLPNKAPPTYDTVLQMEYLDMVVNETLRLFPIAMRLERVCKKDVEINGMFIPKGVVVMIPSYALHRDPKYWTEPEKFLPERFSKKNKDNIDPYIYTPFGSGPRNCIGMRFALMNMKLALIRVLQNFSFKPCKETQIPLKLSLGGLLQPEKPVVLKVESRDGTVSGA
# experiment: CYP inhibition in human liver microsomes, 3A
# condition.summary: probe midazolam
measure.name: pIC50
One number for each entry, as −log10 of the molar value.

Input line: What pIC50 appears in the records for this molecule with CYP3A (Homo sapiens)? `O=C(NCc1cnc(C(F)(F)F)s1)c1ccc2c(c1)NC(=O)c1ccccc1S2(=O)=O`
Output line: 4.08

---

# experiment: in vivo
# condition.summary: male, CD-1, mouse, iv, 1 mg/kg
# Method: The same solution formulation was administered per os (p.o.) in the same species to determine oral bioavailability. Pharmacokinetic studies were performed at Wuxi (Shanghai, China) for studies in male mouse, rat, and cynomolgus monkey and at Sai (Pune, India) for studies in male dog. For all oral studies, the formulation was administered in the fasted state (food removed at least 12 h prior to dosing) to groups of 3 per arm.
measure.name: AUC(0-inf) (ng·h/mL)
Numbers only, in ng·h/mL.

Input line: Returns the measured AUC(0-inf) for the input compound. Input: `O=C(NCc1cnc(C(F)(F)F)s1)c1ccc2c(c1)NC(=O)c1ccccc1S2(=O)=O`
Output line: 2070

---

For each entry below, report its pEC50 value.
# Tested on: NrtI^R HBV (rtL180M/M204V)
# experiment: microbe, parasite or virus in culture
# Type: cell-based, Hepatitis B virus
# condition.summary: Hepatitis B virus, 96 h, read-out: Mean EC50
Give bare numbers, as −log10 of the molar value.

C=C1[C@H](CO)[C@@H](O)C[C@@H]1n1cnc2c(=O)[nH]c(N)nc21; 8.15

Then there is this compound:
Input line: # get_value(readout= pEC50, system= NrtI^R HBV (rtL180M/M204V)) for `O=C(NCc1cnc(C(F)(F)F)s1)c1ccc2c(c1)NC(=O)c1ccccc1S2(=O)=O`
Output line: 6.58

---

# experiment: in vitro
# condition.summary: human
measure.name: recovery at 4 days, 10 μM

Input line: Field request: recovery at 4 days, 10 μM | item: `O=C(NCc1cnc(C(F)(F)F)s1)c1ccc2c(c1)NC(=O)c1ccccc1S2(=O)=O`
Output line: 67 to 84%

---

# experiment: in vitro
# condition.summary: monkey, hepatocytes
measure.name: half-life at 1 μM (h)
Numbers only, in h.

Input line: Look up half-life at 1 μM for this compound: O=C(NCc1cnc(C(F)(F)F)s1)c1ccc2c(c1)NC(=O)c1ccccc1S2(=O)=O [ABI-H0731]
Output line: 7.92

---

# experiment: in vivo
# condition.summary: male, cynomolgus monkey, po, 2 mg/kg
measure.name: bioavailability (%)
One number for each entry, in %.

Input line: Look up bioavailability: O=C(NCc1cnc(C(F)(F)F)s1)c1ccc2c(c1)NC(=O)c1ccccc1S2(=O)=O [ABI-H0731]
Output line: 55
